Entry source: patent US20050282739A1

# subject_of_test: T1, human melanocortin-3 receptor (hMC3-R) (human, UniProt P41968 1-323)
# T1 construct: whole, on cells; membranes prepared from hMC3-R cells were used; also called Melanocortin Receptor 3
# protocol_description: 125I-NDP-α-MSH competition, hMC3-R membranes
Square brackets hold non-standard residues; d marks the D form. Ends that are not written are not given here. Nle = CCCC[C@H](N)C(=O)O
Entries annotated with measured % Inhibition at 1 µM
Answer in %, number only, no unit symbol.

>>> val("YVXGHFRWDRFC (not fully specified; Nle 3; C-terminal amide; Re complexed at Cys 12) [metallopeptide 4-1]")
69

Prompt line: What value of measured % Inhibition at 1 µM is listed for SYSXEHFRWGKGVC (N-terminal acetyl; Nle 4 (X in letters); D-Cys 14; C-terminal amide; Re complexed at D-Cys 14) [metallopeptide 2-1] ?
Response line: 72

Prompt line: Now the binder Ac-SYS[Nle]EHFRWG[dC]KPV-NH2 (also: oxorhenium(V) N3S1 chelate at D-Cys11) [metallopeptide 2-4]
Response line: 27

Prompt line: Now this one: YV[Nle]CGHFRWDRF-NH2 (also: oxorhenium(V) N3S1 chelate: C4 SG + backbone N of V2, X3, C4, bridge at 4 via Re(V)=O, other end not in the chain) [metallopeptide 4-9]
Response line: 19
